List of self-cleavage kobs at 40 uM GlcN6P values.
B1: glmS ribozyme (parent)
chain: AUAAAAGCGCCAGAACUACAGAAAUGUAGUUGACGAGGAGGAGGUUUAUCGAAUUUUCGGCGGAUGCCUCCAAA

# Variants of: B1
# test.name: self-cleavage kobs at 40 uM GlcN6P; higher = faster cleavage; RNA array
# measurement.parameters: with glucosamine-6-phosphate
Fewer inactive variants are shown than the library holds.

Please review the following examples before continuing.
AUAAAACCGCCAGAACUACAGAAAUGUAGUUGGCGAGGAGGAGGUUUAUCGAUUUUUCGGCGGGUGCCUCCAAA [G7C A33G A53U A64G]: < 1e-05 s⁻¹
AUAAAAGCGCCAGAGCUACAGAAAUGUAGUUGACGAGGAGGAGGUUUAUCGAAUUUUCGGCGGAGGCCUCCAAA [A15G U65G]: 4.05e-05 s⁻¹
AUAAAAGCGCCAGAACUACAGAAAUGUAGUUGACGAGGAGGUGGUUUAUCGAAUUUUCGGCGGAAGCCUCCAAA [A42U U65A]: < 1e-05 s⁻¹
AUAAAAGCGCCAGAACUACAGAAAUGUAGUUGACGAGGAGGAGGUUUAAGGAAUUUUCGGCGGAUGCGUCCAAA [U49A C50G C68G]: 9.07e-05 s⁻¹
AUAAAAGCGCCAGAAAUACAGAAAUGUAGUUGACGAGGAGCAGGUUUAUCGAAUUUUCGGCGGAUGCCUCCAAA [C16A G41C]: < 1e-05 s⁻¹

Report self-cleavage kobs at 40 uM GlcN6P for AUAAAACCGCUAGAACUACAGAAAUGUAAUUGACGAGGAAGUGGUUUAUCGAAUUUUCGGCUGAUGCCUCCAAA [G7C C11U G29A G40A A42U G62U] please.
< 1e-05 s⁻¹

Let us now turn to AUAAAAGCGCCAGAACUACAGAAAUGUAGUUGACGAGGAUGAGGUUUAUCGAAUUUUCUGCGGAUGCCCCUAAA [G40U G59U U69C C71U]
< 1e-05 s⁻¹

Let us now turn to AUAAAAGCGCCAGAACUACAGAAAUGUAUUUGACGAGGAGGGGGUUUAUCGAAUUUUCGGCGGAUGCCUCCAAA [G29U A42G]
0.000272 s⁻¹

Let us now turn to AUAAAAGCGCCAGAACUACAGAAAUGUAGUUGACGAGGGGGAGGUUUAUCGAAUUUCCGGCGGAUGCCUCCAAA [A39G U57C]
< 1e-05 s⁻¹

Let us now turn to AUAAAAGCGCCAGAACUACAGAAAUGUAGUUGACAAGGAGGAGGUUUAUCGACUUUUCGGCGGAUGCCUCCAAA [G35A A53C]
< 1e-05 s⁻¹

Let us now turn to AUAAAAGCGCAAGAACUACAGAAAUGUAGUUGACGAGGAGGAGGGUUAUCGAAUUUUCGGCGGAUGCCUCCAAA [C11A U45G]
< 1e-05 s⁻¹

Let us now turn to AUAAAAGGGCCAGAACUACAGAAAUGUAGUUGACGAGGAGGAUGUUUAUCGAAUUUUCGGCGGAUGCCUCCAAA [C8G G43U]
< 1e-05 s⁻¹
